Catalogue of MIC readings, one per entry.
Tested on: K. pneumoniae MP-546
experimental-protocol: MIC determination by CLSI broth dilution, K. pneumoniae MP-546
Type: cell-based
measurement-context: Klebsiella pneumoniae, MP546, CLSI broth dilution; strain MP-546
endpoint: MIC

given-smiles	system-under-test	result
CO[C@]1(C)C[C@@H](C)CN(C)[C@@H](CCCN2CCC2)COC(=O)C(C)(C)C(=O)[C@H](C)[C@H]1O[C@@H]1O[C@H](C)C[C@H](N(C)C)[C@H]1O	K. pneumoniae MP-546	< 4 µg/mL
CO[C@]1(C)C[C@@H](C)CN(C)[C@H](CC2CCN(C=O)CC2)COC(=O)C(C)(C)C(=O)[C@H](C)[C@H]1O[C@@H]1O[C@H](C)C[C@H](N(C)C)[C@H]1O	K. pneumoniae MP-546	> 32 µg/mL
CO[C@]1(C)C[C@@H](C)CN(C)[C@@H](CCCN2CC[C@@H](F)C2)COC(=O)C(C)(C)C(=O)[C@H](C)[C@H]1O[C@@H]1O[C@H](C)C[C@H](N(C)C)[C@H]1O	K. pneumoniae MP-546	< 4 µg/mL
CO[C@]1(C)C[C@@H](C)CN(C)[C@H](CC2CCN(C)CC2)[C@@H](C)OC(=O)C(C)(C)C(=O)[C@H](C)[C@H]1O[C@@H]1O[C@H](C)C[C@H](N(C)C)[C@H]1O	K. pneumoniae MP-546	4 to 32 µg/mL
CO[C@]1(C)C[C@@H](C)CN(C)[C@H](CC2CCN(Cc3ccco3)CC2)COC(=O)C(C)(C)C(=O)[C@H](C)[C@H]1O[C@@H]1O[C@H](C)C[C@H](N(C)C)[C@H]1O	K. pneumoniae MP-546	< 4 µg/mL
CO[C@]1(C)C[C@@H](C)CN(C)[C@H](C[C@H]2C[C@H](N(C)CC3CC3)C2)COC(=O)C(C)(C)C(=O)[C@H](C)[C@H]1O[C@@H]1O[C@H](C)C[C@H](N(C)C)[C@H]1O	K. pneumoniae MP-546	< 4 µg/mL
CO[C@]1(C)C[C@@H](C)CN(C)[C@H](CC2CCN(CC[C@@H](C)CCC=C(C)C)CC2)[C@@H](C)OC(=O)C(C)(C)C(=O)[C@H](C)[C@H]1O[C@@H]1O[C@H](C)C[C@H](N(C)C)[C@H]1O	K. pneumoniae MP-546	4 to 32 µg/mL
CO[C@]1(C)C[C@@H](C)CN(C)[C@@H](CC2CCN(CC(C)(C)C)CC2)C(C)(C)OC(=O)C(C)(C)C(=O)[C@H](C)[C@H]1O[C@@H]1O[C@H](C)C[C@H](N(C)C)[C@H]1O	K. pneumoniae MP-546	> 32 µg/mL
CO[C@]1(C)C[C@@H](C)CN(C)[C@@H](CN(C)Cc2nccn2C)COC(=O)C(C)(C)C(=O)[C@H](C)[C@H]1O[C@@H]1O[C@H](C)C[C@H](N(C)C)[C@H]1O	K. pneumoniae MP-546	> 32 µg/mL
CO[C@]1(C)C[C@@H](C)CN(C)[C@H](CCCN(C)C(C)C)COC(=O)C(C)(C)C(=O)[C@H](C)[C@H]1O[C@@H]1O[C@H](C)C[C@H](N(C)C)[C@H]1O	K. pneumoniae MP-546	< 4 µg/mL
CCCN1CC=C(C[C@@H]2COC(=O)C(C)(C)C(=O)[C@H](C)[C@@H](O[C@@H]3O[C@H](C)C[C@H](N(C)C)[C@H]3O)[C@](C)(OC)C[C@@H](C)CN2C)CC1	K. pneumoniae MP-546	< 4 µg/mL
CO[C@]1(C)C[C@@H](C)CN(C)[C@@H](CCCN2Cc3ccccc3C2)COC(=O)C(C)(C)C(=O)[C@H](C)[C@H]1O[C@@H]1O[C@H](C)C[C@H](N(C)C)[C@H]1O	K. pneumoniae MP-546	< 4 µg/mL
CO[C@]1(C)C[C@@H](C)CN(C)[C@@H](CCCN2CCC(O)CC2)COC(=O)C(C)(C)C(=O)[C@H](C)[C@H]1O[C@@H]1O[C@H](C)C[C@H](N(C)C)[C@H]1O	K. pneumoniae MP-546	4 to 32 µg/mL
CO[C@]1(C)C[C@@H](C)CN(C)[C@H](CC2CCN(Cc3ccncc3)CC2)COC(=O)C(C)(C)C(=O)[C@H](C)[C@H]1O[C@@H]1O[C@H](C)C[C@H](N(C)C)[C@H]1O	K. pneumoniae MP-546	4 to 32 µg/mL
CO[C@]1(C)C[C@@H](C)CN(CC(C)C)[C@@H](CCCN(C)C(C)C)COC(=O)C(C)(C)C(=O)[C@H](C)[C@H]1O[C@@H]1O[C@H](C)C[C@H](N(C)C)[C@H]1O	K. pneumoniae MP-546	4 to 32 µg/mL
CO[C@]1(C)C[C@@H](C)CN(C)[C@H](CC2CCN(C3CCCC3)CC2)COC(=O)C(C)(C)C(=O)[C@H](C)[C@H]1O[C@@H]1O[C@H](C)C[C@H](N(C)C)[C@H]1O	K. pneumoniae MP-546	< 4 µg/mL
CO[C@]1(C)C[C@@H](C)CN(C)[C@@H](CC2CCN(CC(C)(C)C)CC2)COC(=O)C(C)(C)C(=O)[C@H](C)[C@H]1O[C@@H]1O[C@H](C)C[C@H](N(C)C)[C@H]1O	K. pneumoniae MP-546	4 to 32 µg/mL
CO[C@]1(C)C[C@@H](C)CN(C)[C@@H](CC2CCN(CC(C)C)CC2)COC(=O)C(C)(C)C(=O)[C@H](C)[C@H]1O[C@@H]1O[C@H](C)C[C@H](N(C)C)[C@H]1O	K. pneumoniae MP-546	4 to 32 µg/mL
COCCCN1CCC(C[C@@H]2COC(=O)C(C)(C)C(=O)[C@H](C)[C@@H](O[C@@H]3O[C@H](C)C[C@H](N(C)C)[C@H]3O)[C@](C)(OC)C[C@@H](C)CN2C)CC1	K. pneumoniae MP-546	< 4 µg/mL
